System: biotinyl-Phe-oxazolone
Experiment: self-aminoacylation, catalytic enhancement (BFO) (fold over background); higher = more active; k-Seq, kA / k0A0; sequences stand for … in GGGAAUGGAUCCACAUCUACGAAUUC…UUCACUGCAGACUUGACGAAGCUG
Fewer inactive variants are shown than the library holds.
Decide by self-aminoacylation: equal to or exceeding 2 means yes, less means no.

# example entries with known answers
CONSTRUCT SEQUENCE	CAT
AUUCACCUAGGUCACCGGAUG [Fam2.2 aminoacylation ribozyme variant]	yes
AAGUUGUCUAAUAGUCGCAAG [Fam3.1 aminoacylation ribozyme variant]	yes
AUUACAGUGGUCAUCGAGUGA [Fam2.1 aminoacylation ribozyme variant]	no
AUUCACCUAGGUAAUCCGGUG [Fam2.2 aminoacylation ribozyme variant]	yes
CUUCUUCAAACAAUAGGUCUG [Fam1A.1 aminoacylation ribozyme variant]	no
CUACUUCAAAGAAUCGGUGUG [Fam1A.1 aminoacylation ribozyme variant]	no
CGACACUUCAAGCAAUCGGGC [Fam1B.1 aminoacylation ribozyme variant]	yes
AAGGUUGCUAAUAGUCGCUAG [Fam3.1 aminoacylation ribozyme variant]	no
AUUCACCGAGAUCAUCGGGUG [Fam2.2 aminoacylation ribozyme variant]	yes
AUUCUCCUAGGUCAUCUGGUG [Fam2.2 aminoacylation ribozyme variant]	yes

Challenge: Entry AAUACCCUGGUCAUAGAGUGA [Fam2.1 aminoacylation ribozyme variant] : is its self-aminoacylation no less than 2?
Response given: yes

Challenge: Another sequence: CUACUUCAAUCGAUCGGUCUG [Fam1A.1 aminoacylation ribozyme variant]
Response given: no

----------
Test system: biotinyl-Trp-oxazolone
Test: self-aminoacylation, catalytic enhancement (BWO) (fold over background); higher = more active; k-Seq, kA / k0A0; sequences stand for … in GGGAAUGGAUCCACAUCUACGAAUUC…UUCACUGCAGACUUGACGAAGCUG
Fewer inactive variants are shown than the library holds.
METRIC NAME: self-aminoacylation
Give bare numbers.

Known self-aminoacylation results, listed for orientation:
CONSTRUCT SEQUENCE	self-aminoacylation
CUACUUCGUACAAUCGGUCUG [Fam1A.1 aminoacylation ribozyme variant]	0.327
AUUACGCUGGUCAUCGAGGGA [Fam2.1 aminoacylation ribozyme variant]	2.25
CCUCACUUCAAGCAACCGGUC [Fam1B.1 aminoacylation ribozyme variant]	1.29

Challenge: Sample CCACACUGCAAGGAAUCGGUC [Fam1B.1 aminoacylation ribozyme variant] — what was its self-aminoacylation?
Response given: 1.51

----------
Tested on: biotinyl-Leu-oxazolone
Assay: self-aminoacylation, catalytic enhancement (BLO) (fold over background); higher = more active; k-Seq, kA / k0A0; sequences stand for … in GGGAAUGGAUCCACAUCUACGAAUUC…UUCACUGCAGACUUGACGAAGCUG
Variants at the floor of the assay were thinned out.
Hi there, I'd appreciate the recorded self-aminoacylation for every entry that follows.
Answers are plain numbers.

Dear reader, for each entry below, please note its self-aminoacylation.
1. CUACACUUCCAGCAAUCGGUC [Fam1B.1 aminoacylation ribozyme variant]
2. CUACUUCAAACAUUGGGUCUG [Fam1A.1 aminoacylation ribozyme variant]
3. CCACACUUCCAGUAAUCGGUC [Fam1B.1 aminoacylation ribozyme variant]

Response given:
1. 1.1
2. 0.868
3. 0.829

Dear reader, for each entry below, please note its self-aminoacylation.
1. AGGAUUGCUAAUAGUCGCAAG [Fam3.1 aminoacylation ribozyme variant]
2. AAGUUCGCUAAUAGUCGCAUG [Fam3.1 aminoacylation ribozyme variant]

Response given:
1: 1.66; 2: 2.88
